B1: glmS ribozyme (parent)
chain: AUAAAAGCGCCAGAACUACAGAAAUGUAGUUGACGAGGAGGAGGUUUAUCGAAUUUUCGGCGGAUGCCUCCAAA

# Variants of: B1
# test.summary: self-cleavage kobs at 640 uM GlcN6P; higher = faster cleavage; RNA array
# test.context: with glucosamine-6-phosphate
Fewer inactive variants are shown than the library holds.
Each entry gets f if its self-cleavage kobs at 640 uM GlcN6P stays under 0.0002 s⁻¹, and t if its self-cleavage kobs at 640 uM GlcN6P is 0.0002 s⁻¹ or above.

{"columns": ["variant.designation", "answer.label"],
 "data": [
  ["C11A A15U A64C", "f"],
  ["U30G A33C G40C U54A A64C", "f"],
  ["A48U C58U", "f"],
  ["G63C A64U", "f"],
  ["G7U A14G", "f"],
  ["G13C G29U A48U", "f"],
  ["A33C C68A", "f"],
  ["C16G A42G", "t"],
  ["A15G A42U", "f"],
  ["A42G U49G", "t"],
  ["A33C A39C A52U C70U", "f"],
  ["G9U C58G G59C", "f"],
  ["A15U A33G G41U", "f"],
  ["C11A C34U", "f"],
  ["C8U U30C G59U", "f"],
  ["C8U G40U G43U", "f"],
  ["A42C G59C", "f"],
  ["A33G G38U U49C C71U", "f"],
  ["U31A G51A", "f"],
  ["G40A U49G", "f"],
  ["A15U U56A", "t"],
  ["U55C C61U G63U", "f"],
  ["A52U G59A", "f"],
  ["G7U A15C A36U U47C", "f"],
  ["U47A U69A", "f"],
  ["C11A G44U A48G C61A", "f"],
  ["A33C G59A C67U", "f"],
  ["A14U A53U C71U", "t"],
  ["C34A G51U", "f"],
  ["G66U C68G", "f"],
  ["A39C U45C", "f"],
  ["G29A G32A", "t"],
  ["U30A G51U", "f"],
  ["A14C C68U", "f"],
  ["G9U A39U C61A", "t"],
  ["C58A", "f"],
  ["A15G U46G", "t"],
  ["A33C A53G", "f"],
  ["A15C C16U U45A", "t"],
  ["C8G C50U", "f"],
  ["G40A A53G", "t"],
  ["A15G C16A U30A A64G", "t"],
  ["U54C U69A", "f"],
  ["G35U C70U", "f"],
  ["U30G A39U U65C", "f"],
  ["A48U U55A", "f"]
]}
